Hello, the source for this data is the supplement of paper PMC10567573, in case you need it.

method summary: protein stability index of a GFP-peptide fusion (GPS, HEK-293T) (PSI 1-6); higher = more stable;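 also: 24-mer peptide tiles fused after GFP, lentivirally expressed, FACS-sorted into six equal bins by GFP/DsRed ratio, decoded by Illumina sequencing, PSI is the read-weighted mean bin number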
experimental conditions: treatment: MLN4924 1 uM, 8 h; c terminus: a fixed tail appended
Decision: protein stability index compared against 3; not below it gives YES, below it gives NO.

Use these answered entries as a reference point.
sequence input	cat
DHGVPEHPTPFLAFLRRVKTCNPP [PTPRD]	YES
SSPRSVDSYSSTQHVPEELDLSSS [ATF6]	YES
VKVIRDFTTNKCKGFGFVTMTNYD [ELAVL3]	NO
LPGRGRVLSSWSRAFVSIQEEMAE [RHOBTB2]	YES
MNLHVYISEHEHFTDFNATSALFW [CLPTM1]	NO

Request: Hi team, for ELQGFWMDIGQPKDFLTGMCLFLQ [GMPPB] , is the recorded protein stability index at or above 3?
Result: NO

Request: Is protein stability index at least 3? Consider SDSAPRNKISRFQAPISAPEYTYG [MFF]
Result: YES

Request: Identify whether the reported protein stability index of the following sequence is 3 or greater: LPYQHFSAHFTSGPLVPRLAGMAN [TBX5]
Result: NO

Request: Can PLRADHMVKEPVEDTDPSTLSFNM [EDARADD] be said to have protein stability index at or above 3?
Result: YES

Request: I'd appreciate it if you could say whether ACTRSLLGDPPPLLTLPRPPLSGA [HDAC6] has protein stability index at least equal to 3.
Result: YES

Request: Please indicate if the recorded protein stability index for VQELCKQLHAKIDAAEEEKYDMEV [TNNI2] meets or exceeds 3.
Result: YES

###

Catalogue of protein stability index readings, one per entry.
method summary: protein stability index of a GFP-peptide fusion (GPS, HEK-293T) (PSI 1-6); higher = more stable
experimental conditions: treatment: DMSO; c terminus: a fixed tail appended
# respond with the number and nothing more

sequence input	parameter	numeric readout
KESAQCVGDEFLNCKLATRAKDFL [SNX8]	protein stability index	3.32
LCLACSAGYYELAQVLLAMHANVE [ANKRD17]	protein stability index	2.96
IRLKESINCQLSDPSSTKPGTLLK [TRIM14]	protein stability index	3.28
TPAMSSSSSSRVLLRQQLMRAQAQ [TFE3]	protein stability index	3.65
EVSLDSLDLRVKGILSSQAEGLAN [EHMT1]	protein stability index	4.18
LEEEFDSDSGLSLDSSHSPSSLSS [NFE2L1]	protein stability index	5.25
PRLWTTCRDGEVLLRLSKHGPGHE [ACSBG2]	protein stability index	2.4
EDLTPEDDMPIGRNVLELNDVRQS [PTPRD]	protein stability index	5.13
QRILRIMCRLEELGLAGRCLTLTP [HDAC6]	protein stability index	2.39
SKARRKKIMIIICCVILGIVIAST [STX1A]	protein stability index	2.69

Request: protein stability index lookup needed for FKEVKEKFKGWVSYSTSEQAELSY [DLC1] , thanks.
Result: 3.13

Request: So what does the record say about protein stability index for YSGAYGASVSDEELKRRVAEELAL [CHCHD3] ?
Result: 3.11

Request: Suppose we examine the sequence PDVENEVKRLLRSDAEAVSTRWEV [TAF7L] ; what protein stability index value has been reported?
Result: 3.24

###

Each record here notes measured protein stability index.
method summary: protein stability index of a GFP-peptide fusion (GPS, HEK-293T) (PSI 1-6); higher = more stable
experimental conditions: treatment: DMSO; c terminus: a fixed tail appended
// return just the number, without any unit appended

Request: Bench note: what protein stability index did SPLTLAACGGHVELAALLIERGAS [ANKRD17] show?
Result: 2.48

Request: Requested read-out: protein stability index. Entry: VCMTFMKQIAGGDVTAKNIWLAES [INTS3]
Result: 2.53

Request: What value of protein stability index has been recorded for this entry: REWRCCPGHSGVSCEEVAASSASL [EMID1]
Result: 3.74

Request: Record request: protein stability index value, item ELDLRLRLAQPSSPEVLTPQLSPG [RTN2]
Result: 4.23

Request: I would be grateful if you could share the reported protein stability index for FQDAIFPDTQENRRMFSSLFQFSN [CCDC3] .
Result: 2.38

Request: Recorded protein stability index of GNQESKLIILASGGPQALVNIMRT [CTNNB1] , please.
Result: 2.21

###

method summary: protein stability index of a GFP-peptide fusion (GPS, HEK-293T) (PSI 1-6); higher = more stable
experimental conditions: treatment: MLN4924 1 uM, 8 h; c terminus: a fixed tail appended
parameter: protein stability index

Request: Data request, read-out protein stability index, for EQVFNAVMAWVKYSIQERRPQLPQ [KLHL20]
Result: 2.35

Request: Which value of protein stability index has been reported for LDLIFHVALPTEAEFQLVRDVVLC [TENT5C] in the records?
Result: 2.68

Request: Which protein stability index is listed for QHHEALSLFCYEDQEAVCLICAIS [TRIM39] ?
Result: 2.35

Request: What protein stability index value was documented for this sequence, GGQRSTPLIIAARNGHAKVVRLLL [FEM1B] ?
Result: 2.23

Request: Entry AHLAAEVEGKCLQSGFEMLKDVKS [TRIM39] has what protein stability index?
Result: 4.62

Request: Look up protein stability index: AFNFLLVWYYCTLTIRESILINNG [TMEM120A]
Result: 3.15

Request: # lookup: protein stability index of RKSVRYTRQKKNLPDSPLRFDGLP [TRIM15]
Result: 3.66

Request: Consider the sequence AGAGGSGSRISVSRSTSFRGGMGS [KRT18] and give its measured protein stability index.
Result: 3.79

Request: Please report the recorded protein stability index for TSANKITLVSSGSGTMGAAKVTGE [FLOT1] .
Result: 4.69

Request: Look up protein stability index: LCLACSAGYYELAQVLLAMHANVE [ANKRD17]
Result: 2.56

Request: Reported protein stability index, sequence KNERLWLLDDSKTWWRVRNAANRT [NCK2] : ____
Result: 2.62

Request: Which protein stability index reading was recorded for the sequence QISMELAKVNYVKNNICFMSHHQE [SLC2A12] ?
Result: 2.41

Request: What does the data say about its protein stability index? Entry: LLKQGYNKTLLRLRLRKERVSDVQ [PKD2L1]
Result: 2.44

Request: Would you kindly share the measured protein stability index for QDFAKDLLKTLYNSIKNEKLEWAI [PSD2] ?
Result: 2.23

###

method summary: protein stability index of a GFP-peptide fusion (GPS, HEK-293T) (PSI 1-6); higher = more stable
experimental conditions: treatment: DMSO; c terminus: a fixed tail appended
parameter: protein stability index
Lab note: record the figure alone, no unit after it.

Recorded protein stability index, per entry:
sequence input	protein stability index
STCFTELQRDFLKQRPTKLKSLIR [OAS1]	2.6
IGLRLVLEYLYTANVTLSLDTVEE [KLHL14]	2.96
VDAGAEPGRSRMISQEEFARQLQL [LPCAT4]	4.52

Request: Quick one: protein stability index for LADPYRSLKAPGARGPGPEGGGGG [JUNB] ?
Result: 4.63

Request: Consider the sequence LVNDDDEEADDTRYTQGTGGDEVD [ZC3H15] and give its measured protein stability index.
Result: 5.43

Request: I would be grateful if you could share the reported protein stability index for PLRADHMVKEPVEDTDPSTLSFNM [EDARADD] .
Result: 5.1

Request: Which protein stability index reading was recorded for the sequence TAHADEFDCPSELQHTQELFPQWH [STEAP1] ?
Result: 3.79

Request: Look at this sequence and give its reported protein stability index. EMMSQALKATFSGFTKEQQRLGIP [ETS1]
Result: 2.35

Request: protein stability index for NYLVRLSFHNLKFDCSTANKIFLR [ZNF277] ?
Result: 2.46

Request: I am curious: what protein stability index value has been reported for PPRRGVSGDRDENSFSLNSSISSS [MAP2] ?
Result: 4.84

###

method summary: protein stability index of a GFP-peptide fusion (GPS, HEK-293T) (PSI 1-6); higher = more stable
experimental conditions: treatment: DMSO; c terminus: a fixed tail appended
Entry flag: MET if protein stability index reaches 4; NOT MET if it does not.

Before answering, review these 3 worked examples.
sequence input	cat
RIKEVEHMTRHLEESEKAMQERVQ [LRRC45]	MET
RSLLLKYARTPTLDPDTMHARLRL [TRIM14]	NOT MET
AFNFLLVWYYCTLTIRESILINNG [TMEM120A]	NOT MET

Request: Answer whether protein stability index of KVWDQVKASNPDLKLWEIGKIIGG [SMARCE1] is greater than or equal to 4.
Result: NOT MET

Request: Does the reported protein stability index for KILISGLEPSTPYRFLLYGLHEGK [TNXB] fall at or above the 4 mark?
Result: NOT MET

Request: Does the reported protein stability index for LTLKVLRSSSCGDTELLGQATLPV [C2CD2L] fall at or above the 4 mark?
Result: NOT MET
